The origin of these recorded values is PubChem BioAssay (NCATS).

Experiment: qHTS assay for cell viability of the p53RE-bla HCT-116 cell line (AID 743292); note: nearly all actives have a fitted effect of over 55% in size
Conditions: p53RE-bla HCT-116 viability, ATP luminescence, 16 h; series mostly up to 95 µM
Results filed as inconclusive are left out. Calls of active or inactive are those of the source. Calls come from the whole dose curve; as a rule, active = well fitted cell-killing curve with a large enough effect; inconclusive = small, poorly fitted or top-dose-only effect, or effect the other way; inactive = flat fitted curve, though single readings scatter.
metricName: outcome

NC(=O)N/N=C/c1ccc([N+](=O)[O-])o1: inactive
NCCNCCNCCNCCN: inactive
CN(C)CCCN1c2ccccc2Sc2ccc(Cl)cc21: inactive
O=S(=O)(O)NC1CCCCC1: inactive

*Q* Consider the molecule `CN(C)CCCN1c2ccccc2CCc2ccccc21` and give its measured outcome.
*A* inactive

*Q* // repeat for `COc1ccccc1O` and report
*A* inactive
